tested on: COLO 205 colon; experiment: NCI tumour cell line growth inhibition, 48 h

Compound: COc1cccc(CN(C)c2ccc(CO)c(Cl)c2)c1
TGI: 11.7 µM
--
Compound: NC(Cc1c[nH]c2cc([N+](=O)[O-])ccc12)C(=O)O (stereo not drawn)
TGI: > 100 µM
--
Compound: Cc1ccnc2nc(N)ccc12
TGI: > 100 µM
--
Compound: COc1ccc2c(c1)CC[C@@H]1C2CC[C@](C)(C#N)C1CC#N (stereo partly drawn)
TGI: > 100 µM
--
Compound: O=S(=O)(c1ccc(-c2nnc(-c3ccc(F)cc3)o2)cc1)c1ccc(-c2nnc(-c3ccc(F)cc3)o2)cc1
TGI: > 100 µM
--
Compound: CN1CCN(Cc2ccc(NC(=O)c3cncc(C#Cc4cnc(N)cc4C#N)c3)cc2C(F)(F)F)CC1
TGI: 12.8 µM
--
Compound: CCCCCCCCCC(=O)N[C@@H](c1ccco1)[C@@H](O)C(=O)O[C@H]1C[C@@]2(O)[C@@H](OC(=O)c3ccccc3)[C@@H]3[C@]4(OC(C)=O)CO[C@@H]4C[C@H](O)[C@@]3(C)C(=O)[C@H](OC(C)=O)C(=C1C)C2(C)C
TGI: 0.0335 µM
--
Compound: Nc1cccc(S(=O)(=O)Nc2nnc(S(N)(=O)=O)s2)c1
TGI: > 100 µM

###

tested on: LOX IMVI melanoma; assay: NCI tumour cell line growth inhibition, 48 h
Test readout: TGI

Molecule: Cc1ccc(-c2cc(O)c3nc4ccccc4n3c2)cc1
Data value: > 100 µM

Molecule: Cc1nc2n(c1/C=C1/C(=O)Nc3ccccc31)CCS2
Data value: > 100 µM

Molecule: CC(=O)NC(CCCCN)C(=O)NCc1ccccc1 (stereo unspecified)
Data value: > 100 µM

Molecule: O=c1c2cc(-c3ccccc3)sc2ncn1Cc1ccc(Cl)c(Cl)c1
Data value: > 100 µM

Molecule: CNNC(=N\S(=O)(=O)c1cc(C)c(Cl)cc1SCc1ccccc1)/N=C/c1ccc([N+](=O)[O-])s1
Data value: > 100 µM

Molecule: CCOC(=O)c1cc2c(OCc3ccccc3)c(OC)cc3c2c(n1)N(c1ccc(OC)cc1)C(C)C3 (stereo unspecified)
Data value: > 50 µM

Molecule: CC(C)OP(=O)(OC(C)C)C1=NN(c2ccc([N+](=O)[O-])cc2)C(P(=O)(OC(C)C)OC(C)C)=NN1c1ccc([N+](=O)[O-])cc1
Data value: > 100 µM

Molecule: C1=C/COCc2cc(ccc2OCCN2CCCC2)Nc2nccc(n2)-c2ccc(o2)COC/1
Data value: 2.29 µM

Molecule: COc1ccc(NC(=O)/C=C(C)/C=C/C=C(C)/C=C/C2=C(C)CCCC2(C)C)cc1
Data value: 10.6 µM

Molecule: C=C(C)C1CC/C(C)=C/CC[C@]2(C)O[C@@H]2CCC2=CC1OC2=O (stereo partly specified)
Data value: 48.2 µM

Molecule: COCC1OC(S(=O)(=O)c2ccccc2)C(O)C(OC)C1OC (stereo unspecified)
Data value: > 100 µM

Molecule: Cc1cc(C)c2c(n1)sc1c(N)ncnc12
Data value: > 25 µM

Molecule: CN(C)/C=N\c1ccnc(=O)[nH]1
Data value: > 100 µM

Molecule: Cc1cc(Cl)ccc1OCC(=O)Nc1nc(N)nc(N)n1
Data value: > 100 µM

Molecule: CCc1cccc(C)c1NC(=O)CCc1nnc2s/c(=C\c3cccc4ccccc34)c(=O)n12
Data value: > 100 µM

Molecule: O=C1C[C@@H]2[C@@H](CCC23CC3)N1
Data value: > 100 µM

###

tested on: OVCAR-8 ovarian; experiment: NCI tumour cell line growth inhibition, 48 h

Molecule: COc1cc2ncnc(-n3ncc4cc(NC(=O)Nc5ccc(Cl)c(Cl)c5)ccc43)c2cc1OC
TGI: 7.07 µM

Molecule: COc1ccc(OC(C(=O)O)C(C)C)c2c1CCCC2=O (stereo unspecified)
TGI: > 100 µM

Molecule: NNc1cnn(-c2ccccc2)c(=O)c1Cl
TGI: > 100 µM

Molecule: CC(=O)NC(CCCCN)C(=O)NCc1ccccc1 (stereo unspecified)
TGI: > 100 µM

Molecule: CC(=O)NC1=C(NCCCl)C(=O)c2ccccc2C1=O
TGI: 52.4 µM

Molecule: CN(C)c1ccc(/C=C/C(=O)N[C@@H]2C(=O)N3[C@@H]2SC(C)(C)[C@@H]3C(=O)O)cc1
TGI: > 100 µM

Molecule: CCN1CCN(c2cc(C)nc(N(CCCNc3ccnc4cc(Cl)ccc34)Cc3ccc4c(c3)OCO4)n2)CC1
TGI: 14.4 µM

Molecule: CN1N=C(c2ccncc2)OC1c1cccc(C(F)(F)F)c1 (stereo unspecified)
TGI: > 100 µM

Molecule: NC(=O)[C@@H](CC1CC1)[C@@H](CCC(F)(F)F)C(=O)N[C@H]1N=C(c2ccccc2)c2cccc(F)c2NC1=O
TGI: > 100 µM

Molecule: O=C(O)CC[P+](c1ccccc1)(c1ccccc1)c1ccccc1
TGI: > 100 µM

Molecule: Cc1ccc(-n2cc(-c3ccc(Cl)cc3)c3c(NN)ncnc32)cc1
TGI: 7.02 µM

Molecule: O=[N+]([O-])c1nccn1CC(O)CN1CCCCC1 (stereo unspecified)
TGI: > 100 µM

Molecule: Cc1nc2n(c1/C=C1/C(=O)Nc3ccccc31)CCS2
TGI: > 100 µM

Molecule: Cc1cc(C)c2c(n1)sc1c(N)ncnc12
TGI: > 25 µM

Molecule: CC1CN(S(=O)(=O)c2oc(-c3ccc(Cl)cc3)nc2C#N)CC(C)O1 (stereo unspecified)
TGI: 21.2 µM

Molecule: O=C(Nc1ccc(-n2ccc3c(NC(=O)c4ccccc4)ncnc32)cc1)c1cccc(C(F)(F)F)c1
TGI: 29.2 µM

###

system: IGROV1 ovarian; test: NCI tumour cell line growth inhibition, 48 h

Compound: NNc1cnn(-c2ccccc2)c(=O)c1Cl
TGI: > 100 µM
//
Compound: CC(=O)NNc1nc(C)c(C(=O)NNC(=O)C(=O)Nc2cccc(C(C)=O)c2)s1
TGI: 60.7 µM
//
Compound: CN1CCN(Cc2ccc(NC(=O)c3cncc(C#Cc4cnc(N)cc4C#N)c3)cc2C(F)(F)F)CC1
TGI: 5.62 µM
//
Compound: Cn1c(=O)c2[nH]c(SCCN3CCOCC3)nc2n(C)c1=S
TGI: > 100 µM
//
Compound: COC(=O)NNC(c1ccc(Cl)cc1)c1ccc(Cl)cc1
TGI: 34 µM
//
Compound: CNc1ccc2ncccc2c1[N+](=O)[O-]
TGI: > 100 µM
//
Compound: O=C(C#Cc1ccccc1)N1c2ccccc2CC1c1c[nH]c2ccccc12 (configuration not stated)
TGI: 25.3 µM
//
Compound: C=C1C(=O)O[C@H]2[C@H]1CC/C(COC(=O)NCc1ccc(OC)cc1)=C\CC[C@@]1(C)O[C@@H]21
TGI: 2.79 µM
//
Compound: O=C(O)/C=C\C(=O)Nc1ccccn1
TGI: > 100 µM
//
Compound: Clc1cccc(N2CCN(CCCN3CCc4c([nH]c5ccccc45)C3c3cccnc3)CC2)c1 (configuration not stated)
TGI: > 100 µM
//
Compound: Nc1ccc(Nc2cc(=O)[nH]c(=O)[nH]2)cc1
TGI: > 100 µM
//
Compound: CC(C)=CCOc1cc(NC(=S)c2ccsc2C)ccc1Cl
TGI: 89.3 µM
//
Compound: CCCCCCCCOC(=O)c1c(C)[nH]c(/C=C2\N=C(c3ccc[nH]3)C=C2OC)c1C
TGI: 6.81 µM
//
Compound: O=C(/C=C/c1ccc(O)c(O)c1)NCc1c[nH]c2ccccc12
TGI: > 100 µM
//
Compound: Cc1c(OCc2ccccc2)c(=O)ccn1CCc1c[nH]c2ccccc12
TGI: > 100 µM
//
Compound: CN1N=C(c2ccncc2)OC1c1cccc(C(F)(F)F)c1 (configuration not stated)
TGI: > 100 µM
//
Compound: O=C(O)c1cc(=O)c2c([nH]c3ccccc32)s1
TGI: > 100 µM
//
Compound: CC12CCCCC1=[N+]([O-])C(C)(C)N2O (configuration not stated)
TGI: > 100 µM
//
Compound: O=C1CC(C(CC(=O)c2ccccc2)c2ccccc2)C(=O)c2ccccc2N1 (configuration not stated)
TGI: > 100 µM
//
Compound: CNNC(=N\S(=O)(=O)c1cc(C)c(Cl)cc1SCc1ccccc1)/N=C/c1ccc([N+](=O)[O-])s1
TGI: > 100 µM
//
Compound: COC(=O)c1c(CC(Cc2ccc3c(c2)CCCC3)C(=O)OC)ccc2c1CCCC2 (configuration not stated)
TGI: > 100 µM
//
Compound: O=C1Nc2cc([N+](=O)[O-])c(Br)cc2C1=O
TGI: 32.7 µM

###

system: RPMI-8226 leukemia; test: NCI tumour cell line growth inhibition, 48 h
Test readout: GI50

Molecule: C=C1C(=O)O[C@H]2[C@H]1CC/C(COC(=O)NCc1ccc(OC)cc1)=C\CC[C@@]1(C)O[C@@H]21
Data value: 0.683 µM
//
Molecule: NC(=O)[C@@H](CC1CC1)[C@@H](CCC(F)(F)F)C(=O)N[C@H]1N=C(c2ccccc2)c2cccc(F)c2NC1=O
Data value: 27.8 µM
//
Molecule: CC(C)c1nc(N(C)S(C)(=O)=O)nc(-c2ccc(F)cc2)c1/C=C/[C@@H](O)C[C@@H](O)CC(=O)O
Data value: > 100 µM
//
Molecule: O=C1C2=C(C(=O)c3cnccc31)C1C=CC2CC1 (centres undefined)
Data value: 2.28 µM
//
Molecule: COc1ccc(NC(=O)/C=C(C)/C=C/C=C(C)/C=C/C2=C(C)CCCC2(C)C)cc1
Data value: 2.33 µM
//
Molecule: O=C(Nc1ccc(F)cc1F)c1cc(Cl)ccc1O
Data value: 0.689 µM
//
Molecule: CCCCCN(CCCCC)CC(O)c1cc(Cl)ccc1OC (centres undefined)
Data value: 4.81 µM
//
Molecule: Cc1ccc2nc(-c3ccc(OCC(=O)N=Nc4c(O)[nH]c5ccccc45)cc3)[nH]c2c1
Data value: 3.44 µM
//
Molecule: O=S1(=O)N(Cc2ccccc2)[C@@H](Cc2ccccc2)[C@H](O)[C@H](O)[C@H](Cc2ccccc2)N1Cc1ccccc1
Data value: 4.49 µM
